For each entry below, report its composite z-score value.
Test system: Chordin-like protein 2 (CHRDL2)
Assay: compounds binding chordin-like 2 – biochemical, small-molecule microarray, 635 nm fluorescence, primary screen (AID 1126);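 also: printed compound slides probed with Chrdl2 protein at 4 µg/mL for 1 h at 4 C; score merges 667 nm emission intensity with signal to noise over three replicate slides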
Settings: fluorescence 635 nm, higher = more signal

OCCCC1=CC(c2ccc(CN3CCCC3)cc2)N(Cc2cccc(OC(F)(F)F)c2)CC1 (centres undefined) :: 0.248
CC(C)(C)N1CC=CC23O[C@@H]4C=CCCOC(=O)C4[C@H]2C(=O)N(CCCCCCO)[C@@H]3C1=O (some centres undefined) :: -1.29
N#Cc1ccc(NN2C(C(O)C3CC=CCC3)C=CC3C(=O)N(c4ccccc4)C(=O)C32)cc1 (centres undefined) :: 0.0572

# composite z-score lookup, item C[C@@H]1NC(=O)C([C@@H](C)OCc2ccccc2)NC(=O)[C@@]23C(=O)N[C@@H](Cc4ccccc4)C2[C@H](C)[C@@]2(C)O[C@H]2C3/C=C/C/C=C\CNC1=O (some centres undefined)
0.209

###

Test: probe aXIP binding to arrayed compounds – biochemical, NeuroSMM set, 635/667 nm fluorescence, primary screen (AID 1119);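 also: probe is the protein aXip251-270 applied at 1 µg/mL to compound-printed slides; binding of probe to printed compounds measured as 667 nm fluorescence plus signal to noise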
Conditions: small-molecule microarray, higher = more signal, called active from +8 up or from −8 down
Outcome: rule met for composite Z-score of at least 0.5; rule not met for anything lower.

Here's what some known entries look like.
COC(=O)C1(Cc2ccccc2)C=C2C(=C(C)C(=O)C2C)CN1 (stereo not given) :: rule met
O=C1O[C@H](Cc2ccccc2)[C@@H]2[C@H]3C=CCCC=C3CN2[C@H]1Cc1ccc(O)cc1 :: rule not met
COc1ccc([Si](C)(C)[C@@H]2[C@@H](CC(=O)N(CCO)Cc3ccccc3)O[C@]3(C(=O)N(Cc4ccc(N5C(=O)c6cccc7cccc5c67)cc4)c4ccccc43)[C@H]2C)cc1 :: rule not met
CCOC(=O)C1=CC[C@@H](c2ccc(OC)cc2)N(S(=O)(=O)c2ccc(C)cc2)[C@H]1CC :: rule not met

Tell me whether composite Z-score is at least 0.5 here: `COC(=O)C[C@H]1O[C@@]2(C[C@@H]1[Si](C)(C)C)C(=O)N(C)c1ccccc12`
rule not met

Tell me whether composite Z-score is at least 0.5 here: `CCCCCCc1nc(Cc2cc(OC)c(OC)c(OC)c2)cc2c1[Si](C(C)C)(C(C)C)O[C@H]2c1ccccc1`
rule met

Tell me whether composite Z-score is at least 0.5 here: `O=C1O[C@@H](c2ccccc2)[C@@H](c2ccccc2)N2[C@@H](c3ccc(OCCO)cc3)[C@]3(C(=O)Nc4ccc(C#CC5(O)CCCCCC5)cc43)[C@@H](C(=O)O)[C@H]12`
rule not met

Tell me whether composite Z-score is at least 0.5 here: `COC(=O)[C@@]1(Cc2ccccc2)[C@H]2c3cc(C(=O)N(C)C)n(CCSC(=N)N)c3C[C@H]2CN1C(=O)c1ccccc1`
rule met

Tell me whether composite Z-score is at least 0.5 here: `COC(=O)[C@@]1(Cc2ccc(F)cc2)[C@H]2c3cc(C(=O)N4CCCC4)n(Cc4ccccn4)c3C[C@H]2CN1C(=O)c1ccccc1`
rule not met

Tell me whether composite Z-score is at least 0.5 here: `Cc1ccc(F)cc1S(=O)(=O)N[C@H]1CCN(Cc2ccc(OC(C)C)cc2)C1`
rule not met

Tell me whether composite Z-score is at least 0.5 here: `CC(C)(C)OC(=O)CC[C@@]1(C(=O)NCCN2CCOCC2)N=C(c2ccc(OCCCO)cc2)O[C@@H]1c1ccccc1CN=[N+]=[N-]`
rule met

Tell me whether composite Z-score is at least 0.5 here: `COc1ccc([Si](C)(C)[C@@H]2[C@@H](CC(=O)N3CCC[C@H]3CO)O[C@]3(C(=O)N(Cc4ccc(N5CCOC5=O)cc4)c4ccccc43)[C@H]2C)cc1`
rule not met

Tell me whether composite Z-score is at least 0.5 here: COc1ccc(C(O)C2C=CC3C(=O)N(C)C(=O)C3N2N(c2ccccc2)c2ccccc2)cc1 (stereo not given)
rule met

###

For each entry below, report its composite z-score value.
Target: Fibroblast growth factor 10 (Homo sapiens) (UniProt O15520)
Sequence (O15520 whole entry, looked up): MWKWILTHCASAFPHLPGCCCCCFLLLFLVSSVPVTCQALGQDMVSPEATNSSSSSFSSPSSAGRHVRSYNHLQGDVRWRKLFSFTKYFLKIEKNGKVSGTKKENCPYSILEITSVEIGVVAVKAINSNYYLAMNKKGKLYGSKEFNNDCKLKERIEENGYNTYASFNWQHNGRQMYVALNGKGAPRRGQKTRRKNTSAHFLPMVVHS
Assay: compounds binding fibroblast growth factor 10 – biochemical, small-molecule microarray, 635 nm fluorescence, primary screen (AID 1102)
Settings: FGF10 binding, fluorescence 635 nm, higher = more signal
One number for each entry.

C=C(C)[C@@H]1CC=C(C(O)C2C=CC3C(=O)N(c4ccccc4)C(=O)C3N2Nc2ccc([N+](=O)[O-])cc2)CC1 (some centres undefined) :: 1.27
COCCOC(=O)N1C(=O)[C@@]2(c3ccccc31)[C@H](C(=O)N1CCN(c3ncccn3)CC1)[C@H]1C(=O)O[C@H](c3ccccc3)[C@H](c3ccccc3)N1[C@@H]2c1ccccc1OCCO :: 1.17
O=C1[C@@H]2[C@@H](CC(COc3ccccc3)=C([C@H](O)CCc3ccccc3)[C@@H]2CO)C(=O)N1Cc1ccccc1 :: 0.408

The record that follows has no composite z-score shown yet.
# composite z-score lookup, item `C=C(CCCC)/C(=C/C[C@H](OC(=O)c1ccncc1)c1ccc(OCCO)cc1)c1cnc2ccccc2c1`
0.898

###

Assay: probe aEGFR binding to arrayed compounds – biochemical, biotinylated probe, 635/667 nm fluorescence, primary screen (AID 1097);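 also: probe is a biotinylated anti-EGFR antibody binding compounds printed on slides; score combines fluorescence near 667 nm and signal to noise of each spot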
Details: small-molecule microarray, higher = more signal
recorded metric: composite z-score
One number for each entry.

In the examples that follow, each entry is paired with its recorded composite z-score.
CN(C)CCCCNC(=O)[C@H]1C[C@H]2C(=O)NCC(=O)N2[C@H]1c1ccc(O)cc1 :: -0.139
CC(=O)NCCCC[C@@H]1NC(=O)[C@H]2C[C@@H](C(=O)NCCCCCCNC(=O)CS)[C@@H](c3cccc(OCCO)c3)N2C1=O :: -0.123

For every item in the list below, what is its measured composite z-score?
1. COc1ccc([Si](C)(C)[C@H]2[C@H](CC(=O)N3CCC[C@H]3CO)O[C@@]3(C(=O)N(Cc4ccc(N5CCCCC5=O)cc4)c4ccccc43)[C@@H]2C)cc1
2. Cc1ccc(C(C)CC(O)C2C=CC3C(=O)N(C)C(=O)C3N2Nc2ccccc2)o1 (stereo not drawn)
3. CN1C(=O)C2C=CC(C(O)c3ccc(-c4ccccc4)s3)N(NC(=O)OC(C)(C)C)C2C1=O (stereo not drawn)
4. CC(C)(C)N1CC=CC23O[C@@H]4C=CCOC(=O)[C@@H]4[C@H]2C(=O)N(CCO)[C@@H]3C1=O (stereo partly drawn)
5. CCOC(=O)C1=CC[C@@H](c2ccc(OC)cc2)N(S(=O)(=O)c2ccc(C)cc2)[C@H]1CC

-0.0531
-0.0167
-0.033
-0.205
-0.0157

# composite z-score lookup, item COc1cc(C(O)C2C=CC3C(=O)N(c4ccccc4)C(=O)C3N2Nc2ccccc2)cc(OC)c1OC (stereo not drawn)
0.0473

###

Test: binders of probe aHhip on microarray, primary screen, stem cell growth factor project, biochemical, small-molecule microarray, fluorescence 635/667 (AID 1087);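 also: score merges spot fluorescence at 667nm with spot signal to noise ratio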
Conditions: higher = more signal
recorded metric: composite z-score
Numbers only.

In the examples that follow, each entry is paired with its recorded composite z-score.
COc1ccc([Si](C)(C)[C@@H]2[C@@H](CC(=O)N3CCC[C@H]3CO)O[C@]3(C(=O)N(Cc4ccc(N5CCOC5=O)cc4)c4ccccc43)[C@H]2C)cc1 :: -0.0994
CC(C)NC(=O)[C@@H]1c2ccccc2C(=O)N(Cc2ccccc2C(F)(F)F)[C@H]1c1ccc(CO)cc1 :: -0.668
CC(C)C[C@@H]1NC(=O)[C@@H]2C[C@H](C(=O)NCCCCCCNC(=O)CS)[C@H](c3cccc(OCCO)c3)N2C1=O :: -0.069
COC(=O)C1=CC(CCCO)=CC(c2cccs2)N(Cc2cc3c(cc2Br)OCO3)C=C1C(=O)OC (centres undefined) :: 0.0972
C=CCC(OC(C)=O)[C@@H]1[C@@H](N(Cc2ccc(-c3ccccc3)cc2)C(=O)c2cccc3ccccc23)c2cc(OCCCO)ccc2N1C(=O)Cc1ccc(OC)cc1 (some centres undefined) :: 3.52

For every item in the list below, what is its measured composite z-score?
1. O=C1[C@@H]2[C@@H](CC(COc3ccccc3)=C([C@H](O)CCc3ccccc3)[C@@H]2CO)C(=O)N1Cc1ccccc1
2. COC(=O)[C@]1(Cc2ccccc2)N=C(c2ccc(OCCCO)cc2)O[C@@H]1c1ccccc1CN=[N+]=[N-]
3. C[N+](C)(C)CCCC[C@@H]1NC(=O)[C@@H]2C[C@H](C(=O)NCc3ccc(F)cc3)[C@H](c3ccc(O)cc3)N2C1=O

[0.0176, -0.134, -0.201]

For every item in the list below, what is its measured composite z-score?
1. Cc1ccc(N2C(=O)c3ccccc3[C@](C)(C(=O)NCCCN(C)C)[C@@H]2c2ccc(CO)cc2)nc1
2. CC1CC/C=C\[C@H]2OC34C=CCN(C(C)(C)C)C(=O)[C@H]3N(CCCO)C(=O)[C@@H]4C2C(=O)O1 (some centres undefined)
3. COc1ccc(C(=O)Nc2ccc3c(c2)[C@@]2(O[C@H](CCO)[C@@H]([Si](C)(C)c4ccc(OC)cc4)[C@@H]2C)C(=O)N3Cc2ccccc2)cc1
4. C=C(CCCC)/C(=C/C[C@@H](OC(C)=O)c1ccc(CO)o1)c1cnc2ccccc2c1
5. C[C@@H]1ON(c2ccccc2)[C@H](c2ccccc2)[C@H]1C(=O)O
6. C=CCOC(=O)[C@H]1[C@@H]2C(=O)O[C@@H](c3ccccc3)[C@@H](c3ccccc3)N2[C@@H](c2ccc(OCCOC(=O)[C@@H]3C[C@@H]4C(=O)N[C@@H](CCCC[N+](C)(C)C)C(=O)N4[C@@H]3c3ccc(O)cc3)cc2)[C@]12C(=O)Nc1ccc(I)cc12

[-0.236, -0.169, 0.2, -0.179, 0.289, -0.0088]
